- Test system: HOP-92 NSCLC
- METHOD NOTES: NCI-60 one-dose screen, 48 h (100 = growth as untreated, 0 = no growth, -100 = all killed)
- CONDITION DETAILS: 10 µM unless noted
The panel holds about 83,000 compounds, 20% with a hit somewhere; the sample as a whole holds those more often.
# growth listing for each entry below
Give just the number in %; leave the unit off.

>>> test_value("COC(=O)[C@]12CC[C@@H](C)[C@H](C)[C@@H]1C1=CC[C@@H]3[C@@]4(C)C(C#N)=CC(C)=C4CC[C@@]3(C)[C@]1(C)CC2")
91.7
>>> test_value("Nc1c(C(=O)c2ccccc2)sc2nc(-c3cccs3)cc(-c3cccs3)c12")
69.2

Now, please, on to the next compound.
Ask: I am curious: what growth value has been reported for CO[C@H]1C[C@@H]2CC[C@@H](C)[C@@](O)(O2)C(=O)C(=O)N2CCCC[C@H]2C(=O)O[C@H]([C@H](C)C[C@@H]2CC[C@@H](OC(=O)C(C)(CO)CO)[C@H](OC)C2)CC(=O)[C@H](C)/C=C(\C)[C@@H](O)[C@@H](OC)C(=O)[C@H](C)C[C@H](C)\C=C/C=C/C=C/1C ?
Result: 9.36

====

- Test system: RPMI-8226 leukemia
- METHOD NOTES: NCI-60 one-dose screen, 48 h (100 = growth as untreated, 0 = no growth, -100 = all killed)
- CONDITION DETAILS: 10 µM unless noted
Compounds without any hit were thinned out: in the full panel of roughly 83,000, 20% have a hit.
Class membership depends on growth alone; the intervals are I: < 10%; II: ≥ 10% and < 80%; III: ≥ 80%

>>> category("COC(=O)C1=C(C(=O)OC)C23C=C(C)C1C2=C(C)C1(CC1)[C@@](C)(O)C3=O (some centres not stated)")
"III"

Ask: Input ClCc1ccc(-c2ccc(Cn3cnc4c(Cl)nc(Cl)nc43)cc2)cc1 ; output its category
Result: I

Ask: Input C=C1CC[C@@H]2[C@](C)(COC(C)=O)[C@H](OC(C)=O)CC[C@@]2(C)[C@@H]1C/C=C1/C(=O)OC[C@H]1OC(C)=O ; output its category
Result: II

Ask: Input Nc1c(Cl)cccc1[N+](=O)[O-] ; output its category
Result: III

Ask: Input CN1CCN(CCOc2cc(OC3CCOCC3)c3c(Nc4c(Cl)ccc5c4OCO5)ncnc3c2)CC1 ; output its category
Result: III

Ask: Input CCOc1cc2ncc(C#N)c(Nc3ccc(F)c(Cl)c3)c2cc1NC(=O)/C=C/CN(C)C ; output its category
Result: I

====

- System: TK-10 renal
- METHOD NOTES: NCI-60 one-dose screen, 48 h (100 = growth as untreated, 0 = no growth, -100 = all killed)
- CONDITION DETAILS: 10 µM unless noted
This is part of a sample that, as a whole, favours compounds with a hit. Of some 83,000 tested, about 20% had one in any assay. Calls of active or inactive are those of the source. The calls were made as follows: active = growth percent below 10; inactive = the rest.
# growth listing for each entry below

>>> test_value("CCNCCNc1cc(-c2ccc(Cl)c(Cl)c2)c(C#N)c2nc3ccccc3n12")
"-84.3% (active)"
>>> test_value("CCCC(=O)OCC1OC(n2cnc3c(=S)nc(N)[nH]c32)C(OC(=O)CCC)C1OC(=O)CCC (configuration not stated)")
"23.5% (inactive)"
>>> test_value("O=C1CSC(c2c(F)cccc2Cl)N1NC(=O)C(O)(c1ccccc1)c1ccccc1 (configuration not stated)")
"113% (inactive)"
>>> test_value("CCN1CCN(Cc2ccc(NC(=O)Nc3nc(-c4cc(OC)c(OC)c(OC)c4)cs3)cc2C(F)(F)F)CC1")
"62.4% (inactive)"
>>> test_value("COc1cccc(NC(=O)Nc2ccc(Nc3ncnc4sc5c(c34)CCN(C(=O)CCl)C5)cc2)c1")
"122% (inactive)"
>>> test_value("Nc1nc(=S)c2ncn(C3OC(COC(=O)c4ccc(Cl)cc4)C(OC(=O)c4ccc(Cl)cc4)C3OC(=O)c3ccc(Cl)cc3)c2[nH]1 (configuration not stated)")
"91.3% (inactive)"

Now, please, on to the next compound.
Ask: I am curious: what growth value has been reported for CO[C@H](C(=O)N[C@@H](CCCCNC(=O)OCc1ccccc1)C(=O)OC(C)(C)C)[C@@H]1Cc2cc3cc(OC4CC(OC5CC(O)C(O)C(C)O5)C(O)C(C)O4)c(C)c(O)c3c(O)c2C(=O)[C@H]1OC1CC(OC2CC(OC3CC(C)(O)C(O)C(C)O3)C(O)C(C)O2)C(O)C(C)O1 (some centres not stated) ?
Result: -9.57% (active)

Source of measurements: PubChem BioAssay (NCI)
